Each recorded value in this set is attributed to paper doi:10.1101/2024.03.05.583629.

Here, each record is paired with measured binding signal data.
target: pT7_6His-AlfaTag-HOXD13 (human, UniProt P35453 263-343); assay: PADIT-seq; settings: dsDNA, one strand shown
Sequence (P35453 263-343): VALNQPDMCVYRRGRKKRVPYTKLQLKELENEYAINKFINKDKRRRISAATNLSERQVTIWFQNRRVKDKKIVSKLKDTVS
I only need the number, in log2FC, no unit after it.

Below, each entry is followed by its recorded binding signal result.
Req: Quick one: binding signal for CTCGAGGATATCAAGATCTGGCCTCGGCATTGTAAAAGGAACCTCTAGCTAGCCGACTCACTATAGGGATAATCGCCCTGAGCAAAGACC ?
Resp: 2.55

Req: What does the record list as binding signal for CTCGAGGATATCAAGATCTGGCCTCGGCCATTTAAAAGGAACCTCTAGCTAGCCGACTCACTATAGGGATAATCGCCCTGAGCAAAGACC ?
Resp: 2.3

Req: Entry under review: CTCGAGGATATCAAGATCTGGCCTCGGCTTTTTAACTGGAACCTCTAGCTAGCCGACTCACTATAGGGATAATCGCCCTGAGCAAAGACC . Reported binding signal?
Resp: 1.56

Req: Given the entry CTCGAGGATATCAAGATCTGGCCTCGGCCTTTTAGGCGGAACCTCTAGCTAGCCGACTCACTATAGGGATAATCGCCCTGAGCAAAGACC , report its measured binding signal.
Resp: -0.31

Req: Requested field: binding signal. Item: CTCGAGGATATCAAGATCTGGCCTCGGCCGCGTGCGCGGAACCTCTAGCTAGCCGACTCACTATAGGGATAATCGCCCTGAGCAAAGACC
Resp: -0.99

Req: Endpoint output: binding signal of CTCGAGGATATCAAGATCTGGCCTCGGCGTTTTACTCGGAACCTCTAGCTAGCCGACTCACTATAGGGATAATCGCCCTGAGCAAAGACC . Value?
Resp: 0.701

Others:
Req: Field request: binding signal | item: CTCGAGGATATCAAGATCTGGCCTCGGCTTTTTATCCGGAACCTCTAGCTAGCCGACTCACTATAGGGATAATCGCCCTGAGCAAAGACC
Resp: 1.15

Req: What value of measured binding signal is listed for CTCGAGGATATCAAGATCTGGCCTCGGCTTTTTATTCGGAACCTCTAGCTAGCCGACTCACTATAGGGATAATCGCCCTGAGCAAAGACC ?
Resp: 1.86

Req: State the recorded binding signal for this entry: CTCGAGGATATCAAGATCTGGCCTCGGCGTTTTAGTCGGAACCTCTAGCTAGCCGACTCACTATAGGGATAATCGCCCTGAGCAAAGACC
Resp: -0.506

Req: Record request: binding signal value, item CTCGAGGATATCAAGATCTGGCCTCGGCCTTTTACAAGGAACCTCTAGCTAGCCGACTCACTATAGGGATAATCGCCCTGAGCAAAGACC
Resp: 3.37

Req: Look up binding signal: CTCGAGGATATCAAGATCTGGCCTCGGCGGCCTAAAAGGAACCTCTAGCTAGCCGACTCACTATAGGGATAATCGCCCTGAGCAAAGACC
Resp: -0.691

Req: Find the recorded binding signal belonging to CTCGAGGATATCAAGATCTGGCCTCGGCGTTTTACGGGGAACCTCTAGCTAGCCGACTCACTATAGGGATAATCGCCCTGAGCAAAGACC and report it.
Resp: 3.16

Req: Look up binding signal: CTCGAGGATATCAAGATCTGGCCTCGGCTGAATAAAAGGAACCTCTAGCTAGCCGACTCACTATAGGGATAATCGCCCTGAGCAAAGACC
Resp: 0.859

Req: Looking for the measured binding signal of CTCGAGGATATCAAGATCTGGCCTCGGCGTATTAAAAGGAACCTCTAGCTAGCCGACTCACTATAGGGATAATCGCCCTGAGCAAAGACC , can you help?
Resp: 2.14

Req: What value of measured binding signal is listed for CTCGAGGATATCAAGATCTGGCCTCGGCCAGGTAAAAGGAACCTCTAGCTAGCCGACTCACTATAGGGATAATCGCCCTGAGCAAAGACC ?
Resp: 0.0831

Req: Which binding signal reading was recorded for the sequence CTCGAGGATATCAAGATCTGGCCTCGGCCGCGACCGCGGAACCTCTAGCTAGCCGACTCACTATAGGGATAATCGCCCTGAGCAAAGACC ?
Resp: -0.85

Req: Could you share which binding signal value was measured for CTCGAGGATATCAAGATCTGGCCTCGGCTTTGTAAAAGGAACCTCTAGCTAGCCGACTCACTATAGGGATAATCGCCCTGAGCAAAGACC ?
Resp: 1.2

Req: Look up binding signal for this sequence: CTCGAGGATATCAAGATCTGGCCTCGGCGTTTTATCAGGAACCTCTAGCTAGCCGACTCACTATAGGGATAATCGCCCTGAGCAAAGACC
Resp: 2.41

Req: Would you kindly share the measured binding signal for CTCGAGGATATCAAGATCTGGCCTCGGCAGCGTAAAAGGAACCTCTAGCTAGCCGACTCACTATAGGGATAATCGCCCTGAGCAAAGACC ?
Resp: 0.403

Req: Form field: reported binding signal of CTCGAGGATATCAAGATCTGGCCTCGGCAAGTTAAAAGGAACCTCTAGCTAGCCGACTCACTATAGGGATAATCGCCCTGAGCAAAGACC
Resp: 1.07

Req: Can you look up the measured binding signal of CTCGAGGATATCAAGATCTGGCCTCGGCTTTTTATCTGGAACCTCTAGCTAGCCGACTCACTATAGGGATAATCGCCCTGAGCAAAGACC for me?
Resp: 0.754

Req: Reported binding signal for CTCGAGGATATCAAGATCTGGCCTCGGCGCGTGGCCGGGAACCTCTAGCTAGCCGACTCACTATAGGGATAATCGCCCTGAGCAAAGACC : what is it?
Resp: -1.04

Req: Looking for the measured binding signal of CTCGAGGATATCAAGATCTGGCCTCGGCCATGTAAAAGGAACCTCTAGCTAGCCGACTCACTATAGGGATAATCGCCCTGAGCAAAGACC , can you help?
Resp: 1.41

Req: I would be grateful if you could share the reported binding signal for CTCGAGGATATCAAGATCTGGCCTCGGCCTTTTACTCGGAACCTCTAGCTAGCCGACTCACTATAGGGATAATCGCCCTGAGCAAAGACC .
Resp: 0.504
